Test system: Malme-3M
procedureDetails: NCI tumour cell line growth inhibition, 48 h
Active and inactive are the calls of the source. Rule as the data show it: active = GI50 up to about 1.1 µM and inactive = higher.
Thanks in advance; please answer with one of these: Y = active, N = inactive

These recorded examples may help you get a feel for the data.
- compound: "O=C(OCCN=c1c2ccccc2ccc2ccccc12)c1ccc([N+](=O)[O-])cc1"
  answerLabel: "N"
- compound: "O=C(O)c1c[nH]c2c(ccc3ncccc32)c1=O"
  answerLabel: "N"
- compound: "NC(C(=O)OC(=O)c1ccccc1)C(=O)OC(=O)c1ccccc1"
  answerLabel: "N"
- compound: "COc1cccc2c1OC1c3ccccc3OCC1C2 (stereo not given)"
  answerLabel: "N"
- compound: "O=C(O)CC(Sc1ccccc1)c1ccccc1 (stereo not given)"
  answerLabel: "N"
- compound: "c1ccc2c(c1)c1c(n2CCOCCCN2CCCCC2)CCCC1"
  answerLabel: "N"
- compound: "Cc1cn(C2C=CC(COP(=O)(OCC3=CC(=O)c4ccccc4C3=O)N(C)CCCCCl)O2)c(=O)[nH]c1=O (stereo not given)"
  answerLabel: "Y"
- compound: "O=C(NCc1ccc2ccc3cccnc3c2n1)c1ccc[n+](Cc2ccccc2)c1"
  answerLabel: "N"
- compound: "O=[N+]([O-])c1ccc(-c2csc(=[N+]3CCCCC3)s2)cc1"
  answerLabel: "N"

Could you now consider this next compound?
Query: Recorded call for C[N+](C)(C)CC(=O)N/N=C(\C(=O)NC1=C(Cl)C(=O)c2ccccc2C1=O)C(C#N)c1csc(-c2ccc([N+](=O)[O-])cc2)n1 (stereo not given) ?
Response: N
